tested on: Ribosome; assay: Inhibition of bacterial translation by blocking the function of the ribosomal GTPase center at 400 uM concentration; assay type: subcellular; settings: Escherichia coli
Readout: inhibition (%)

Which inhibition value belongs to C=C(NC(=O)c1cnccn1)C(=O)NC(=C)C(=O)OC ? 30

1. C=C(NC(=O)c1cnccn1)C(=O)N1CCC[C@H]1C(=O)OC
2. C=C(NC(=O)c1ccccn1)C(=O)N1CCC[C@H]1C(=O)OC
Hi, I'm comparing two records. Which one has the lower inhibition, 1 or 2 ? // caller expects the label of the chosen entry 2
(2: 4%, 1: 25%)

* * *

tested on: Ribosome; assay: Inhibition of bacterial translation by blocking the function of the ribosomal GTPase center at 400 uM concentration; format: subcellular; details: Escherichia coli
Readout: inhibition (%)

Can you look up the measured inhibition of C=C(NC(=O)c1ccccn1)C(=O)N[C@@H](COC(C)(C)C)C(=O)OC for me? 40

Entry under review: C=C(NC(=O)c1cnccn1)C(=O)N[C@@H](COC(C)(C)C)C(=O)OC . Reported inhibition? 15

a. C=C(NC(=O)c1csc(-c2cccnc2)n1)C(=O)N1CCC[C@H]1C(=O)OC
b. C=C(NC(=O)c1csc(-c2cccnc2)n1)C(=O)N[C@@H](COC(C)(C)C)C(=O)OC
Between a and b , whose measured inhibition reads higher? Write down the label of the entry you select. b
(b: 30%, a: 20%)
